These measurements were taken from PubChem BioAssay (NCI).

- System: OVCAR-4 ovarian
- assay comment: NCI-60 one-dose screen, 48 h (100 = growth as untreated, 0 = no growth, -100 = all killed)
- assay conditions: 10 µM unless noted
About 83,000 compounds went through this panel and 20% of them were active in at least one assay; those are over-represented in the sample as a whole.
Mark each entry criterion met if its growth sits below 80%, and criterion not met for all others.

molecule="CC1=C([Se]CC(OC(=O)[C@@H](CSSC(C)(C)C)NC(=O)C(C)(C)C)C(=O)NCCCCCC(=O)OCc2ccccc2)C(=O)c2ccccc2C1=O (some centres undefined)" label="criterion met"
molecule=Cc1ccc(OCC(=O)Nc2ccc(Oc3ccccc3)cc2)c([N+](=O)[O-])n1 label="criterion met"
molecule="CC1CC=CCC1C1OCC(C)(C)CO1 (centres undefined)" label="criterion not met"
molecule=O=C1/C(=C/c2ccccc2Cl)CCc2ccccc21 label="criterion not met"
molecule=COc1ccc(-c2cc(-c3cccnc3)nc(S(=O)(=O)CC(=O)Nc3ccc(C)cc3)c2C#N)cc1OC label="criterion not met"
molecule=CC(=O)[C@H]1CC[C@H]2[C@@H]3C[C@H](C)C4=CC(=O)CC[C@]4(C)[C@H]3C(=O)C[C@]12C label="criterion not met"
molecule=O=[N+]([O-])c1ccc2[nH]cc(-c3c4ccccc4cc4[nH]c5ccc([N+](=O)[O-])cc5c34)c2c1 label="criterion met"
molecule=O=C(c1ccc(Cl)cc1)c1ccc(Cl)cc1 label="criterion not met"

Next, consider the following molecule.
(Q) Is it true that growth reported for Cc1[nH]ccc2cc3nc4ccccc4c3cc12 is less than 80%?
(A) criterion met
